- Tested on: Escherichia coli TOP10
- METHOD DESCRIPTION: shrunken log2 fold change of peptide-encoding DNA abundance (4.5 h post-induction vs induction); higher = less antimicrobial activity (less host growth inhibition)
- CONDITION SET: time post-induction: 4.5 h; library: site-saturation at positions 5, 18, 19, 20
Can you tell me shrunken log2 fold change for the items I'm about to list?
Just the number, please, no unit after it.

In plain terms, RRIRQRPPRLPRPRPRPRPAPRP has a documented shrunken log2 fold change of 0.185

// field: shrunken log2 fold change; key: RRIRLRPPRLPRPRPRPTAVPRP ; value = 0.0335

RRIRDRPPRLPRPRPRPYNIPRP yielded shrunken log2 fold change of -0.529

Measured shrunken log2 fold change of RRIRCRPPRLPRPRPRPCSNPRP : -0.274

Form: sequence = RRIRVRPPRLPRPRPRPAHCPRP ; shrunken log2 fold change = 0.122

Entry RRIRARPPRLPRPRPRPMRMPRP — recorded shrunken log2 fold change = 0.784

Field shrunken log2 fold change (entry RRIRKRPPRLPRPRPRPDFDPRP ) reads -0.183

###

- Tested on: Escherichia coli TOP10
- METHOD DESCRIPTION: shrunken log2 fold change of peptide-encoding DNA abundance (4.5 h post-induction vs induction); higher = less antimicrobial activity (less host growth inhibition)
- CONDITION SET: time post-induction: 4.5 h; library: site-saturation at positions 5, 18, 19, 20
Would you please tag the item TRUE when its shrunken log2 fold change is -0.2 or above, and FALSE when it is below?

Reported shrunken log2 fold change at or above -0.2? RRIRQRPPRLPRPRPRPFDCPRP
FALSE

For this sequence, is measured shrunken log2 fold change -0.2 or higher? RRIRYRPPRLPRPRPRPNATPRP
FALSE

Is shrunken log2 fold change for RRIRARPPRLPRPRPRPSQLPRP at or above -0.2?
TRUE

Decide: shrunken log2 fold change of RRIRHRPPRLPRPRPRPGYWPRP >= -0.2?
TRUE

Decide: is the reported value of shrunken log2 fold change for RRIRSRPPRLPRPRPRPSYAPRP equal to or greater than -0.2?
FALSE

Hi team, for RRIRQRPPRLPRPRPRPRSCPRP , is the recorded shrunken log2 fold change at or above -0.2?
TRUE

Hello, I need to know if RRIRDRPPRLPRPRPRPFPSPRP has measured shrunken log2 fold change not below -0.2. Thanks!
TRUE

Assess whether reported shrunken log2 fold change for RRIRRRPPRLPRPRPRPVWNPRP sits at -0.2 or higher.
TRUE

Dear colleague, could you confirm whether RRIRERPPRLPRPRPRPEFFPRP has shrunken log2 fold change at or above -0.2?
TRUE

###

- Tested on: Escherichia coli TOP10
- METHOD DESCRIPTION: shrunken log2 fold change of peptide-encoding DNA abundance (4.5 h post-induction vs induction); higher = less antimicrobial activity (less host growth inhibition)
- CONDITION SET: time post-induction: 4.5 h; library: site-saturation at positions 5, 18, 19, 20
I'd be grateful if you could share measured shrunken log2 fold change for these entries.
Field format: numeric only.

So, RRIRLRPPRLPRPRPRPATWPRP ? Its shrunken log2 fold change was -0.125

// shrunken log2 fold change lookup, sequence = RRIRIRPPRLPRPRPRPVTQPRP , result: -0.0794

Record RRIRPRPPRLPRPRPRPDLTPRP , field shrunken log2 fold change: 0.168

Lab book: shrunken log2 fold change of RRIRHRPPRLPRPRPRPDCYPRP noted as -0.0716

The reported value for RRIRCRPPRLPRPRPRPNESPRP in terms of shrunken log2 fold change is -0.00497

// shrunken log2 fold change value for RRIRNRPPRLPRPRPRPQRIPRP : -0.47

sequence RRIRYRPPRLPRPRPRPNAAPRP , shrunken log2 fold change observed: 0.216

The recorded shrunken log2 fold change for RRIRPRPPRLPRPRPRPMELPRP is -0.00106

Lab book: shrunken log2 fold change of RRIRTRPPRLPRPRPRPNMRPRP noted as 0.33

The reported shrunken log2 fold change of the sequence RRIRTRPPRLPRPRPRPRGAPRP was 0.382

What the record says about RRIRIRPPRLPRPRPRPKLTPRP : shrunken log2 fold change is 0.0656

Reported shrunken log2 fold change of RRIRDRPPRLPRPRPRPGQVPRP : 0.203

Kindly note the recorded shrunken log2 fold change for RRIRQRPPRLPRPRPRPVHLPRP , which is 0.00299

# sequence RRIRSRPPRLPRPRPRPRKDPRP ; its shrunken log2 fold change = 0.271

Record summary for RRIRWRPPRLPRPRPRPVEAPRP : reported shrunken log2 fold change = 0.249

The reported shrunken log2 fold change of the sequence RRIRVRPPRLPRPRPRPGRPPRP was 0.63

Lookup result for RRIRMRPPRLPRPRPRPSTIPRP ; measured shrunken log2 fold change: -0.23

Sample RRIRYRPPRLPRPRPRPDEVPRP ; shrunken log2 fold change observed: 0.000691

Looking up RRIRTRPPRLPRPRPRPQNVPRP , I see its shrunken log2 fold change listed as 0.0194

# shrunken log2 fold change of RRIRPRPPRLPRPRPRPQLCPRP = 0.444

Per the record, RRIRFRPPRLPRPRPRPYSWPRP has shrunken log2 fold change of -0.159

shrunken log2 fold change for RRIRCRPPRLPRPRPRPCKYPRP is -0.227

Recorded result, RRIRVRPPRLPRPRPRPNPQPRP , shrunken log2 fold change: 0.000771

###

What shrunken log2 fold change was measured for each of the following?
- Tested on: Escherichia coli TOP10;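 also: peptides expressed intracellularly from a pBAD plasmid library in pooled LB shake-flask culture, induced with 0.3% L-arabinose, DNA abundance read by NGS, three biological replicates, DESeq2 with apeglm shrinkage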
- METHOD DESCRIPTION: shrunken log2 fold change of peptide-encoding DNA abundance (4.5 h post-induction vs induction); higher = less antimicrobial activity (less host growth inhibition)
- CONDITION SET: time post-induction: 4.5 h; library: site-saturation at positions 5, 18, 19, 20
In your answer, state the number alone without any accompanying words.

Form field shrunken log2 fold change, entry RRIRCRPPRLPRPRPRPQRIPRP : 0.0509

For record RRIRYRPPRLPRPRPRPKTSPRP the listed shrunken log2 fold change is -0.595

Lab note: measured shrunken log2 fold change of RRIRIRPPRLPRPRPRPCRHPRP was -0.159

Record summary for RRIRYRPPRLPRPRPRPHGHPRP : reported shrunken log2 fold change = -0.358

For record RRIRRRPPRLPRPRPRPFRDPRP the listed shrunken log2 fold change is 0.506

Lab book: shrunken log2 fold change of RRIRCRPPRLPRPRPRPEHKPRP noted as -0.221

The sequence listed as RRIRVRPPRLPRPRPRPRDLPRP has a reported shrunken log2 fold change of 0.0448

Given item RRIRVRPPRLPRPRPRPSEWPRP , the value recorded as its shrunken log2 fold change is -0.0811

Entry under test: RRIRGRPPRLPRPRPRPTYYPRP . Its shrunken log2 fold change was 0.0798

Lab note: RRIRNRPPRLPRPRPRPQSRPRP gave shrunken log2 fold change of 0.181

For RRIRTRPPRLPRPRPRPLWFPRP the sequence record lists shrunken log2 fold change as -0.489

The sequence identified as RRIRDRPPRLPRPRPRPMSWPRP registered its shrunken log2 fold change at 0.262

The recorded shrunken log2 fold change for entry RRIRFRPPRLPRPRPRPILLPRP equals -0.554

Lab note: RRIRSRPPRLPRPRPRPKHKPRP gave shrunken log2 fold change of -0.0831

Record RRIRIRPPRLPRPRPRPQRFPRP . Reported shrunken log2 fold change: -0.231

Input RRIRNRPPRLPRPRPRPAWYPRP . Output shrunken log2 fold change: -0.178

RRIRERPPRLPRPRPRPVMDPRP has a reported shrunken log2 fold change of -0.0467

shrunken log2 fold change recorded for this sequence, RRIRHRPPRLPRPRPRPQAFPRP , is -0.0247

Measured shrunken log2 fold change of RRIRVRPPRLPRPRPRPQAAPRP : 0.0662

response.value for RRIRYRPPRLPRPRPRPKAYPRP (field: shrunken log2 fold change) = 0.00787

Measured shrunken log2 fold change of RRIRTRPPRLPRPRPRPVKQPRP : -0.00945

So, RRIRPRPPRLPRPRPRPIDYPRP ? Its shrunken log2 fold change was -0.13

// field: shrunken log2 fold change; key: RRIRGRPPRLPRPRPRPMWAPRP ; value = 0.925

For record RRIRNRPPRLPRPRPRPNPDPRP the listed shrunken log2 fold change is -0.322

Per the record, RRIRNRPPRLPRPRPRPGYEPRP has shrunken log2 fold change of 0.0608

Form: sequence = RRIRKRPPRLPRPRPRPNHVPRP ; shrunken log2 fold change = 0.0656

// RRIRRRPPRLPRPRPRPTAAPRP : shrunken log2 fold change value = 1.21

Kindly note the recorded shrunken log2 fold change for RRIRWRPPRLPRPRPRPAIGPRP , which is 0.0325

Reported shrunken log2 fold change of RRIRIRPPRLPRPRPRPELDPRP : 0.0332

Record summary for RRIRQRPPRLPRPRPRPAWHPRP : reported shrunken log2 fold change = 0.0212

The value of shrunken log2 fold change measured for the sequence RRIRQRPPRLPRPRPRPFMLPRP turned out to be -0.278

So for RRIRNRPPRLPRPRPRPKVHPRP , the logged shrunken log2 fold change turned out to be 0.0346

So, RRIRCRPPRLPRPRPRPQHFPRP ? Its shrunken log2 fold change was -0.0667

The sequence RRIRGRPPRLPRPRPRPQFPPRP showed shrunken log2 fold change equal to -0.0214

Record summary for RRIRIRPPRLPRPRPRPAPEPRP : reported shrunken log2 fold change = 1.9

Please fill in: shrunken log2 fold change reported for RRIRKRPPRLPRPRPRPSAQPRP = 1.84

Just so you know, measured shrunken log2 fold change for RRIRQRPPRLPRPRPRPMNCPRP came out at -0.0255

// recorded shrunken log2 fold change for RRIRWRPPRLPRPRPRPRKCPRP : 0.4

# shrunken log2 fold change of RRIRSRPPRLPRPRPRPFDSPRP = -0.0702

shrunken log2 fold change for RRIRKRPPRLPRPRPRPPIRPRP is -0.104

The recorded shrunken log2 fold change for entry RRIRHRPPRLPRPRPRPNASPRP equals 0.0449

Looking up RRIRARPPRLPRPRPRPFMKPRP , I found its shrunken log2 fold change recorded as 0.528

Memo: RRIRPRPPRLPRPRPRPYPTPRP , reported shrunken log2 fold change: -0.11

The sequence listed as RRIRWRPPRLPRPRPRPIVKPRP shows shrunken log2 fold change equal to -0.174

shrunken log2 fold change reading for RRIRTRPPRLPRPRPRPMPRPRP : 0.175

shrunken log2 fold change recorded for this sequence, RRIRPRPPRLPRPRPRPYRVPRP , is 0.101

For record RRIRFRPPRLPRPRPRPQGQPRP the listed shrunken log2 fold change is -0.103

Looking up RRIRPRPPRLPRPRPRPGDCPRP , I found its shrunken log2 fold change recorded as 0.482

// recorded shrunken log2 fold change for RRIRKRPPRLPRPRPRPHDSPRP : -0.0516

Quick note, shrunken log2 fold change for RRIRERPPRLPRPRPRPPRSPRP landed at 0.375

// sample RRIRKRPPRLPRPRPRPQTIPRP , its shrunken log2 fold change was 0.0582

Just so you know, measured shrunken log2 fold change for RRIRLRPPRLPRPRPRPMSYPRP came out at -0.25

// sample RRIRERPPRLPRPRPRPTHGPRP , its shrunken log2 fold change was 0.0992

Reported shrunken log2 fold change for RRIRTRPPRLPRPRPRPVAPPRP was 0.389

Field shrunken log2 fold change (entry RRIRHRPPRLPRPRPRPHRVPRP ) reads 0.0179

Hello, the source for this data is the supplement of paper PMC9112550, in case you need it.
